Kindly supply the reported % inhibition of biotinylated nAbs values for the records listed here.
Molecular target: T1, EBV gp350 expressed on the surface of stably transfected CHO cells (Epstein-Barr virus, UniProt P03200 1-907)
T1 construct: also called native gp350; gp350 expressing CHO cells
T1 sequence: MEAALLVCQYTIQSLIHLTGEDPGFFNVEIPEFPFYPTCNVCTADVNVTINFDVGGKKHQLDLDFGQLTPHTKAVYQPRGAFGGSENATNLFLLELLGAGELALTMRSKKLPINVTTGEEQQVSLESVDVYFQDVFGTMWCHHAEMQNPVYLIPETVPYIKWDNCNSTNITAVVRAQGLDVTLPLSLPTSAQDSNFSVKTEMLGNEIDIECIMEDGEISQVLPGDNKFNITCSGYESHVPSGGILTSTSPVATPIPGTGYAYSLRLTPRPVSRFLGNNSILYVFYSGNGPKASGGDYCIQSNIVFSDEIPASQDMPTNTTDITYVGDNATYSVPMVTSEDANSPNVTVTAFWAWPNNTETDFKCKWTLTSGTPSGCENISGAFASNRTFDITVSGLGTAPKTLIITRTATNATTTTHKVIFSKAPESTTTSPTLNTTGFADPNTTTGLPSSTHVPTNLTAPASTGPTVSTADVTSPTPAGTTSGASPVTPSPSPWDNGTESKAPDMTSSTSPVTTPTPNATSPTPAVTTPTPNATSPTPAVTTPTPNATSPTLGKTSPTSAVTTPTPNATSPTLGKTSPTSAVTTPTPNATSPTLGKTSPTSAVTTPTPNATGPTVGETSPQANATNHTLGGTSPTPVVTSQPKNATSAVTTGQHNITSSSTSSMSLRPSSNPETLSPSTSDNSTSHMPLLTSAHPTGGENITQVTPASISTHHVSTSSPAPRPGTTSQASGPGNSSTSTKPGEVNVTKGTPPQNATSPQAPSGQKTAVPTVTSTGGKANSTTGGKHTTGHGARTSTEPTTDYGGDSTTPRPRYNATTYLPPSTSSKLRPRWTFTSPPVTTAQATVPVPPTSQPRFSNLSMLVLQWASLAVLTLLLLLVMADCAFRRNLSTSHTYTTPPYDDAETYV
Assay: cross-competition on gp350-CHO cells (flow), unlabeled 500 µg/ml; competitor: biotinylated HB1
Numbers only, in %.

Worked examples follow.
1. HB20 (antibody, V domains shown) VH: ELVKPGASVKLSCKASGYTFTSYWIQWVKQRPGQGLEWIGEINPTNGHTNYNEKFKTKATLTVDKSSSTAYMRLSSLTSEDSAVYYCARNLYYYGRPDYWGQGTSVTVSS VL: SSLSASLGDRVTISCRASQDIGNYLNWYQQKPDGTVKLLIYYTSRLHSGVPSRFSGSGSGTDYSLTISNLEQEDIATYFCQQGNALPPTFGGGTKLEIKR	88
2. murine 72A1 (m72A1), anti-EBV gp350 neutralizing antibody from hybridoma HB168 (antibody, V domains shown, also called nAb-72A1; mouse 72A1) VH: EVQLQQSGPELVKPGTSMKISCKASGSSFTDYTMNWMKQSHGKNLEWIGLINPYNGGTRYNQKFKGKATLTLDKSSSTAYMEVLSLTSEDSAVYYCAGGLRRVNWFAYWGQGTLVSVSA VL: QAVLTQESALTTSPGETVTLTCRSSTGAVTTSNYANWVQEKPDHLFTGLIGGTNNRVPGVPARFSGSLIGDKAALTITGAQTEDEAIYFCVLWHSNHWVFGGGTKLTVL	82

Please examine the following record next.
# lookup: % inhibition of biotinylated nAbs of HB1 (antibody, V domains shown) VH: PGLVAPSQSLSITCTVSGFLLTTYGVHWVRQPPGKGLEWLGVIWAGGSTNYNSALMSRLSINKDISKSQVFLKMNSLQTDDTAMYYCTRDRGYGYLYAMDYWGQGTSVTVSS VL: KFMSTSVGDRVSVTCKASQNVGTNVAWYQQKPGQSPKALIYSTSSRYTGVPDRFAGSGSGTDYTLTISNVQSEDLAEYFCQQYNTYPYTFGGGTRLDIKR
92
